Here the recorded composite z-score is given for each entry.
# subjectOfTest: Dickkopf-related protein 1 (Homo sapiens) (UniProt O94907)
# Sequence (O94907 whole entry, looked up): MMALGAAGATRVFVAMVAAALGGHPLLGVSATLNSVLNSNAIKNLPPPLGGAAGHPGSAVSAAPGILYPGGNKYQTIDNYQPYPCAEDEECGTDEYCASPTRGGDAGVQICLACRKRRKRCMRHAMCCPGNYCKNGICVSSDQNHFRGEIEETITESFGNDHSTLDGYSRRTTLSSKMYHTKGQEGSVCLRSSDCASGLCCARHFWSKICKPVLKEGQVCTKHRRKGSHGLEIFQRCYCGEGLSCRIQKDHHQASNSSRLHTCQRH
# assayDetails: DKK1 binders on small-molecule microarrays, primary screen, biochemical, small-molecule microarray, 635 nm fluorescence scan (AID 1106);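 note: score merges emission near 667 nm with signal to noise over three replicate slides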
# setupConditions: DKK1 binding, higher = more signal
Reply briefly: the number, and no unit.

{"columns": ["molecule", "quantityKind", "valueMeasured"],
 "data": [
  ["CC(C)N1CC=CC23O[C@@H]4/C=C\\CCCOC(=O)C4[C@H]2C(=O)N(CCCCCCO)[C@@H]3C1=O (stereo not given in full)", "composite z-score", -1.08],
  ["CCCNC(=O)[C@@]1(Sc2ccc(C)cc2)CC(=O)N(C2CCCCC2)[C@@H]1c1ccc(CO)cc1I", "composite z-score", -0.122]
]}

Next molecule, please.
Ask | Specify measured composite z-score for C=C(C(=O)CC[C@@H](OC(=O)c1ccccc1-c1ccccc1C(=O)O)c1ccccc1OCCO)C(C)C .
Reply | 0.73

----------
# subjectOfTest: Torsin-1A-interacting protein 1 (Homo sapiens) (UniProt Q5JTV8)
# Sequence (Q5JTV8 whole entry, looked up): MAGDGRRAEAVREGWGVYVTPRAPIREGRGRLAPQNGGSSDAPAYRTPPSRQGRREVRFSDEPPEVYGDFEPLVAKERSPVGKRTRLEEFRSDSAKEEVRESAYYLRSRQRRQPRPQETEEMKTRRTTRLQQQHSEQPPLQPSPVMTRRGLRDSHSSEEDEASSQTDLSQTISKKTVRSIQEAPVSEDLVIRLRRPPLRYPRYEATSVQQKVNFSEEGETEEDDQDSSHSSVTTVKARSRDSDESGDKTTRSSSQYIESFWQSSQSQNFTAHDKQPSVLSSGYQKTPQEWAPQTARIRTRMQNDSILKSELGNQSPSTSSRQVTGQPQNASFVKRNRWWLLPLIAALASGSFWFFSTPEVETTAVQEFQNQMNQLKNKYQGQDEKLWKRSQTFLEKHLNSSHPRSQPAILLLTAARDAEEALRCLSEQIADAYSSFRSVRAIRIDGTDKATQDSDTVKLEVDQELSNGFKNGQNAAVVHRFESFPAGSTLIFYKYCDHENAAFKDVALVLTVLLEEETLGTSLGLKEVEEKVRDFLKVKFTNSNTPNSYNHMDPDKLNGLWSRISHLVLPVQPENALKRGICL
# assayDetails: LAP1 binders from COS7 cell lysate, primary screen, small-molecule microarray, 635/667 nm fluorescence (AID 1116)
# setupConditions: COS7-hLAP1 lysate binding, 635 nm fluorescence, higher = more signal
quantityKind: composite z-score
Reply briefly: the number, and no unit.

Study these solved cases before continuing.
{"columns": ["molecule", "valueMeasured"],
 "data": [
  ["COc1ccc(C(O)C2C=CC3C(=O)N(c4ccccc4)C(=O)C3N2Nc2ccc(C(C)C)cc2)c2ccccc12 (stereo not given)", 0.865],
  ["[N-]=[N+]=NCc1ccccc1[C@@H]1OC(c2ccc(OCCCO)cc2)=N[C@]1(Cc1ccccc1N=[N+]=[N-])C(=O)NCCN1CCOCC1", 0.495],
  ["CS(=O)(=O)CCOC(=O)C1=CC(CCCO)=CC(C2CC2)N(Cc2cccc(OC(F)(F)F)c2)C=C1C(=O)OCCS(C)(=O)=O (stereo not given)", 1.9]
]}

Ask | Specify measured composite z-score for COc1cc(NN2C(C(O)C3CCCCC3)C=CC3C(=O)N(c4ccccc4)C(=O)C32)cc(OC)c1OC (stereo not given) .
Reply | 1.5

Ask | Specify measured composite z-score for CN1C(=O)C2C(C1=O)C1C=C(CCCO)C2C(C2CC2)N1Cc1cc2c(cc1Br)OCO2 (stereo not given) .
Reply | 1.33

Ask | Specify measured composite z-score for O=C1O[C@H](c2ccccc2)[C@H](c2ccccc2)N2[C@H]1[C@@H](C(=O)Nc1nc3ccccc3s1)[C@]1(C(=O)Nc3ccc(C#CC4=CCCCC4)cc31)[C@H]2c1ccc(O)cc1 .
Reply | 1.17

Ask | Specify measured composite z-score for COC(=O)[C@@]1(Cc2ccccc2)[C@H]2c3cc(C(=O)N(C)C)n(CCn4cc([N+](=O)[O-])nc4C)c3C[C@H]2CN1C(=O)c1ccccc1 .
Reply | 2.83

Ask | Specify measured composite z-score for CC1(C)C(=O)C(c2ccccc2)=C2CN3C(=O)N(CCc4ccccc4)C(=O)C3(Cc3ccc(C(F)(F)F)cc3)C=C21 (stereo not given) .
Reply | 0.393

Ask | Specify measured composite z-score for O=c1cccc(-c2ccco2)o1 .
Reply | 0.18

Ask | Specify measured composite z-score for COc1cc(CO)cc(I)c1O[C@H]1C=C(C(=O)NCCO)C[C@@H](NCC2CCCCC2)[C@@H]1O .
Reply | 0.164

Ask | Specify measured composite z-score for COCCOC(=O)N1C(=O)[C@@]2(c3cc(C#CCC(C(=O)OC)C(=O)OC)ccc31)[C@H](C(=O)NC[C@H](O)c1ccccc1)[C@H]1C(=O)O[C@H](c3ccccc3)[C@H](c3ccccc3)N1[C@@H]2c1ccc(O)cc1 .
Reply | 1.37
